# target.system: G protein-activated inward rectifier potassium channel 2 (Homo sapiens) + G protein-activated inward rectifier potassium channel 1 (Homo sapiens) (UniProt P48051+P48549)
# Sequence (P48051 whole entry, looked up): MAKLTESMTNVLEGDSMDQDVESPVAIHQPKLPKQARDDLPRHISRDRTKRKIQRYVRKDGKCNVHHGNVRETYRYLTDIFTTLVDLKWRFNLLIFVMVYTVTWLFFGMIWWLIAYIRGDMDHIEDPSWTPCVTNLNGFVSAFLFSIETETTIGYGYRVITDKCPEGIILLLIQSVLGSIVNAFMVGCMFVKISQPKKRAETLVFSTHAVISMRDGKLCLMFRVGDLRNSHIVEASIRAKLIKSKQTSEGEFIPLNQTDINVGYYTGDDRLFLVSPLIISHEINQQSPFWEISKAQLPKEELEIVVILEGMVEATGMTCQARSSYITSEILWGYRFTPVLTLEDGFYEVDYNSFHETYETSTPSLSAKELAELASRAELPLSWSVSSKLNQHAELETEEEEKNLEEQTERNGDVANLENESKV
# Sequence (P48549 whole entry, looked up): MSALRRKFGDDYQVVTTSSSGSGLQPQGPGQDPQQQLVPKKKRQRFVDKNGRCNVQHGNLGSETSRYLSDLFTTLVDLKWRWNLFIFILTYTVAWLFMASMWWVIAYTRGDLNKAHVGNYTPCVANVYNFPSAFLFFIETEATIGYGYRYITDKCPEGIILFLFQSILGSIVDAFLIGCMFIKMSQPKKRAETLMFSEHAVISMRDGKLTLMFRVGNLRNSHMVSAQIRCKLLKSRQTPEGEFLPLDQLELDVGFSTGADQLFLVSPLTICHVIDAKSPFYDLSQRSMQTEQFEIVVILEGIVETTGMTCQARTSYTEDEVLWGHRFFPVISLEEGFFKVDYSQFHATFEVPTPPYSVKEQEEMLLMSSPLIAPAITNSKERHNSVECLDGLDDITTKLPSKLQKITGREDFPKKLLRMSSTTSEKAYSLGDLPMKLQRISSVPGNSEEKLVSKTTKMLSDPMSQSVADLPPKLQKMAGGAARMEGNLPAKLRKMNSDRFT
# assay.procedure: GIRK1/2 thallium flux modulators, retest, confirmation, cell-based, HEK293 rmGlu8/hGIRK1/2, FluoZin-2 (AID 623911)
# assay.conditions: HEK293 rmGlu8/hGIRK1/2, thallium flux FluoZin-2; actives lie on both sides; glutamate co-added at its EC20 level
In all, about 2,100 compounds went through this assay and about 770 (37%) were called active. The list shows a part of the results.
Hi there, I'd appreciate the recorded manual score for every entry that follows.
One number for each entry.

Use the examples below as a reference point.
| molecule | manual score |
| --- | --- |
| COc1ccc(C)cc1NC(=O)NCCC1=CCCCC1 | 1 |
| COC(=O)c1ccc(C)c(NC(=O)CN2C(=O)c3ccccc3S2(=O)=O)c1 | 0 |
| Cc1ccc(NC(=O)CN2c3cccc4cccc(c34)S2(=O)=O)cc1S(=O)(=O)N1CCOCC1 | 1 |
| O=C(NC(=S)NCCC1=CCCCC1)c1cncc(Br)c1 | 0 |
| O=C(C1CCCN1S(=O)(=O)c1cccc2cccnc12)N1CCc2ccccc21 (stereo not drawn) | 0 |
| COc1ccc2nc(N3C(=O)/C(=C/c4ccccc4)NC3=S)sc2c1 | 1 |
| S=c1[nH]c2cc(Cl)ccc2s1 | 1 |
| COc1ccc2cc(C(=O)Nc3ccccc3)sc(=O)c2c1OC | 0 |

Record manual score per entry; entries follow.
1. O=C(N/N=C/c1ccc2cccc(OCc3ccccc3)c2n1)c1ccc(Br)cc1
2. COc1ccc(C)cc1NC(=O)Nc1ccccc1

// result
0.5
1

---

# target.system: G protein-activated inward rectifier potassium channel 2 (Homo sapiens) + G protein-activated inward rectifier potassium channel 1 (Homo sapiens) (UniProt P48051+P48549)
# assay.procedure: GIRK1/2 thallium flux modulators, retest, confirmation, cell-based, HEK293 rmGlu8/hGIRK1/2, FluoZin-2 (AID 623911)
# assay.conditions: HEK293 rmGlu8/hGIRK1/2, thallium flux FluoZin-2; actives lie on both sides; glutamate co-added at its EC20 level
About 770 (37%) of roughly 2,100 compounds were called active. The list shows a part of the results.
readout: manual score
Answers are plain numbers.

Use the examples below as a reference point.
| molecule | manual score |
| --- | --- |
| Cc1cccc(C(=O)NC(=S)NNC(=O)c2ccc(Cl)cc2)c1 | 1 |
| CCCc1nc2scc(-c3ccccc3)c2c(=O)n1N | 0 |
| Cc1ccc2c(c1)NC(=O)CC(c1ccccc1)=N2 | 0 |
| CCCCNC(=S)NC(=O)c1ccccc1Br | 0.5 |
| O=C(NC(=S)Nc1ccc(N2CCOCC2)cc1)c1cccc(Cl)c1 | 0.5 |
| CC(=O)c1cccc(NC(=S)NC(=O)c2cccc(C)c2)c1 | 0 |
| CCCCNC(=S)NC(=O)c1ccc(Cl)cc1Cl | 1 |
| Cc1cccc(OCCn2c(=S)[nH]c3ccccc32)c1 | 0 |

Record manual score per entry; entries follow.
1. CC(C)CNC(=S)NNC(=O)c1csc2c1CCC(C)C2 (centres undefined)
2. Cc1ccc(-c2csc3nc[nH]c(=S)c23)cc1C
3. CC(NC(=O)COc1ccccc1)C(=O)NC1=NCCS1 (centres undefined)

// result
1. 0
2. 1
3. 0

Record manual score per entry; entries follow.
1. N=c1c2c(ncn1CCN1CCOCC1)Oc1ccc3ccccc3c1C2c1ccccc1 (centres undefined)
2. CCOC(=O)C(CCCCOc1cccc(CC)c1)C(=O)OCC
3. O=C(NC(=S)NNC(=O)c1cccs1)c1ccc(Br)o1
4. COc1ccc(S(=O)(=O)NCCCCCC(=O)NCCCN2CCOCC2)cc1

// result
1: -1; 2: 0; 3: 1; 4: 0

Source of measurements: PubChem BioAssay AID623911
